Target: T1, HLA-DR11 (HLA-DRB1*11:01) (human)
T1 construct: mature; purified from homozygous EBV-transformed lymphoblastoid cells with antibody L243
Experiment: competition ELISA vs biotin-HA 306-318;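 note: HLA and competitor incubated 24 to 72 h, maximal signal taken from wells lacking competitor, background from wells lacking HLA molecule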
No end group written: not given here.
Would you kindly list relative affinity for each of these binders?
Numbers only.

LSYTEESLLPVMQHL-NH2 [CCNB1 369-383] : 45

Give relative affinity for all binders that follow.
1. QAVRPKYLLGREVTG-NH2 [CCNB1 185-199]
2. GAFCLALKILDNGEW-NH2 [CCNB1 347-361]
3. NCVPKKMLQLVGVTA-NH2 [CCNB1 237-251]

Out:
22
9
87
